- System: LOX IMVI melanoma
- TEST DETAILS: NCI-60 one-dose screen, 48 h (100 = growth as untreated, 0 = no growth, -100 = all killed)
- CONDITION SET: 10 µM unless noted
The panel holds about 83,000 compounds, 20% with a hit somewhere; the sample as a whole holds those more often.
Note: every record was labeled by where its growth sits among bin 1 (below 10%), bin 2 (10% to below 80%), bin 3 (80% or more)

Examples from the recorded data:
Cc1n[nH]c(C)c1-c1c(C)n[nH]c1C	bin 1
CN1CCN(C(=O)[C@]2(C)CC[C@]3(C)CC[C@]4(C)C(=CC(=O)[C@@H]5[C@@]6(C)CCC(=O)NC(C)(C)[C@@H]6CC[C@]54C)[C@@H]3C2)CC1	bin 3
CCn1ccnc1C(=O)/C=C/c1ccc(CC(=O)Nc2ccc(F)cc2)cc1	bin 2
S=c1[nH]cccc1-c1nnc2n1Nc1nc3ccc(Cl)cc3cc1CS2	bin 3
NC(=O)c1cccc(-n2ccc3cc(NC(=O)Nc4cc(C(F)(F)F)cc(C(F)(F)F)c4)ccc32)n1	bin 2

The entry to classify is `COc1ccc(Nc2nc(N)nc3c2CCc2occc2-3)cc1` ; which class holds it?
bin 3

Given `N/C(=N\N=C\c1cc2ccccc2s1)N/N=C/c1cc2ccccc2s1` , name the class its growth places it in.
bin 3

Which bin should I file `O=C(NNc1nc(Cl)nc(N2CCN(C(c3ccccc3)c3ccccc3)CC2)n1)c1ccccc1` under?
bin 1

Determine which band this compound sits in: `COc1ccc(/C=C/c2n[nH]c3ccc(N4CCOC4=O)cc23)cc1`
bin 1

Textbook exercise: identify the category of the compound given here, `BrC(Br)(Br)c1cnc2ccccc2n1` , according to its measured value.
bin 2

Which class does COc1ccc(C(O)c2cc3c(N)c(C(=O)Nc4ccc(Br)cc4)sc3nc2C)cc1 (stereo unspecified) fall in?
bin 2

###

- Tested on: RPMI-8226 leukemia
- TEST DETAILS: NCI-60 one-dose screen, 48 h (100 = growth as untreated, 0 = no growth, -100 = all killed)
- CONDITION SET: 10 µM unless noted
This is part of a sample that, as a whole, favours compounds with a hit. Of some 83,000 tested, about 20% had one in any assay.
Assign labels as follows, please: Y for growth below 60%; N for growth equal to or exceeding 60%.

As a guide, the following entries are already answered.
COc1cc(/C=C/C(=O)c2c(C)oc3nc[nH]c(=O)c23)ccc1O	N
O=C(N/N=C/c1ccncc1)c1ccccc1Nc1cccc(C(F)(F)F)c1	Y
O=C(Nc1ccc2cc3ccc(NC(=O)N4CCCCCC4)cc3nc2c1)N1CCCCCC1	Y
Clc1nc(Cl)c2ncn(CC3(Cn4cnc5c(Cl)nc(Cl)nc54)COC3)c2n1	Y
C=C1C(=O)O[C@H]2[C@H]1CC/C(COC(=O)/C=C/c1c[nH]c3ccccc13)=C\CC[C@@]1(C)O[C@@H]21	Y
CC(=O)OC1CCC2(C)C(CCC3C4CC=C(C(C)=O)C4(C)OC(=O)CC32)C1 (stereo unspecified)	Y
CN1CCN(CCCNc2nccc(-c3c(-c4ccc(F)c(O)c4)nc4sccn34)n2)S1(=O)=O	N
CC(O)(CO)c1ccccc1 (stereo unspecified)	N
CCCN=C(N)c1ccc(NC(=O)c2ccc(C(=O)Nc3ccc(C(N)=NCCC)cc3)cc2)cc1	N
CN1CCN(c2ccc(NC3=C(Cl)C(=O)c4ncccc4C3=O)cc2C#N)CC1	Y

A record lists CN(Cc1ccccc1)c1nc(Cl)c(C2CC(c3ccc(Cl)cc3)=Cc3[nH][nH]c(=O)c32)s1 (stereo unspecified) . Is its growth below 60%?
N

Decide: growth of `Cc1[nH]c(C(=O)Nc2ccccc2OCc2cccc(C(=O)NCCN)c2)c(Cl)c1Cl` strictly below 60%?
Y

Threshold test, growth < 60%: Fc1cc(C2=NNC(c3ccc[nH]3)C2)ccc1-n1ccc(C(F)(F)F)n1 (stereo unspecified)
Y

###

- Tested on: OVCAR-8 ovarian
- TEST DETAILS: NCI-60 one-dose screen, 48 h (100 = growth as untreated, 0 = no growth, -100 = all killed)
- CONDITION SET: 10 µM unless noted
This is part of a sample that, as a whole, favours compounds with a hit. Of some 83,000 tested, about 20% had one in any assay.
This listing pairs compounds with measured growth.
API: value field is a number in %; no unit string.

See these solved cases before continuing.
NC(=O)c1cccc(-c2ccccc2N2CCCCC2)c1	99.7
COc1ccc(/C=C2\COc3ccc(-c4ccccc4)cc3C2=O)cc1O	13.1
CC(=O)CCSc1ccc(OC(C)=O)cc1	96.6

Could you now consider this next compound?
# growth (compound: `COc1ccc(C(=O)c2cc3c(N)c(C(=O)Nc4ccc(Cl)cc4)sc3nc2C)cc1` ) is 50.2

###

- Tested on: OVCAR-3 ovarian
- TEST DETAILS: NCI-60 one-dose screen, 48 h
- CONDITION SET: 10 µM unless noted
This is part of a sample that, as a whole, favours compounds with a hit. Of some 83,000 tested, about 20% had one in any assay. Calls of active or inactive are those of the source. Rule for the calls: active = growth percent below 10; inactive = the rest.
Your reply should match one of these outcome classes. active, inactive

Here are 9 molecules together with their reported answers.
O=C1Nc2c(ccc(Cl)c2Cl)/C1=C/c1ccc(O)cc1	inactive
CN1CCN(CCCNc2nccc(-c3c(-c4ccc(F)c(O)c4)nc4sccn34)n2)S1(=O)=O	inactive
CCCCCCCCOC(=O)c1ccc(O)c(OC)c1	inactive
C=C1C(=O)O[C@H]2[C@H]1CC/C(COC(=O)NCCc1c[nH]c3ccc(Cl)cc13)=C\CC[C@@]1(C)O[C@@H]21	active
CCOC(=O)N1CCN(CCCCl)CC1	inactive
COc1cc(-c2cc(=O)oc3cc(O)ccc23)cc(OC)c1OC	inactive
COc1cc2nc(-c3ccc(C#N)cc3)[nH]c(=O)c2cc1OC	inactive
Cn1/c(=N/NC(N)=S)ccc2ccccc21	inactive
COc1ccc(Cn2nc(-c3cc(OC)c(OC)c(OC)c3)c3c2CCc2cnoc2-3)cc1OC	inactive

Pending molecule:
What outcome does the record of this test show for `C[C@H]1[C@H](C)CC[C@]2(CO)CC[C@]3(C)C(=CC[C@@H]4[C@@]5(C)CCCNC(C)(C)[C@@H]5CC[C@]43C)[C@H]12` ?
active

###

- System: HOP-62 NSCLC
- TEST DETAILS: NCI-60 one-dose screen, 48 h (100 = growth as untreated, 0 = no growth, -100 = all killed)
- CONDITION SET: 10 µM unless noted
This is part of a sample that, as a whole, favours compounds with a hit. Of some 83,000 tested, about 20% had one in any assay.
READOUT KIND: growth (%)
All answers are understood in %, so give the number only.

COc1cc(C(=O)c2cnc(-c3ccc4cc[nH]c4c3)[nH]2)cc(OC)c1OC	12.7
COc1ccc(-c2nc(N/N=C/c3c[nH]c4ccccc34)nc(N3CCOCC3)c2C#N)cc1	105
O=C1NC(=O)C(=Cc2cn(Cc3ccccn3)c3ccccc23)C(=O)N1	92.7
COc1ccccc1Nc1cc(O)c2c(=O)cc(-c3ccccc3)oc2c1	35.6
COc1ccc(/C=C/c2n[nH]c3ccc(N4CCOC4=O)cc23)cc1	-1.37
CCCCOc1ccc(/C=N/Nc2cc(C)nc3ccc(Cl)cc23)cc1	27.1

Could you now look at the following compound, please?
Simply: `O=C(N/N=C/c1ccc(O)c(O)c1)c1sc2ccccc2c1Cl` , HOP-62 NSCLC, growth = 81.7

###

- Test system: NCI-H322M lung
- TEST DETAILS: NCI-60 one-dose screen, 48 h
- CONDITION SET: 10 µM unless noted
About 83,000 compounds went through this panel and 20% of them were active in at least one assay; those are over-represented in the sample as a whole. Activity calls are given as the source filed them. The calls were made as follows: active = growth percent below 10; inactive = the rest.
A correct response names exactly one class from True for active, False for inactive

Here's what some known entries look like.
NC(=S)N/N=C(/c1ccccc1)c1ccccc1N	False
COc1ccc(Cn2nc(-c3ccccc3)c3c2CCc2cnoc2-3)cc1	False
O=C(Nc1ccc(Cl)cc1)Nc1ccc(Cl)c(Cl)c1	False
CN1CCN(CC#CCNC(=O)[C@]23CCC(C)(C)C[C@H]2C2=CC[C@@H]4[C@@]5(C)Cc6c([nH]c7ccccc67)C(C)(C)[C@@H]5CC[C@@]4(C)[C@]2(C)CC3)CC1	False
CNC(=O)Nc1ccc(-c2nc(N3CCOCC3)nc3c2cnn3C2CCOCC2)cc1	True

Record lookup: outcome of this test for `CCCCCCOc1ccc(C(=N)N(CCCC)CCCC)c2ccccc12` ?
True

Recorded test call requested for `Cc1cn(-c2cc(C(=O)Nc3cccc(C#Cc4cccc5[nH]nc(N)c45)c3)cc(C(F)(F)F)c2)cn1`
False

// return assay outcome for `C1=C2CNCC3=Cc4ccc5ccccc5c4OC23Oc2c1ccc1ccccc21`
False

Hello, I am checking results. What call was entered for `O=C(N/N=C/c1ccc(F)cc1)c1ccccc1Nc1cccc(C(F)(F)F)c1` ?
False

// return assay outcome for `Cn1c(COC(=O)NCCc2ccccn2)nc2c(N3CCOCC3)nc(Cl)nc21`
False
